Assign log10 of IC50 to each entry below.
molecular target: Cav1.2 L-type Ca channels (Oryctolagus cuniculus, UniProt P15381); assay: FLIPR Fluo-8 calcium assay, Cav1.2 channel inhibition in HEK293 cells
Sequence (P15381 whole entry): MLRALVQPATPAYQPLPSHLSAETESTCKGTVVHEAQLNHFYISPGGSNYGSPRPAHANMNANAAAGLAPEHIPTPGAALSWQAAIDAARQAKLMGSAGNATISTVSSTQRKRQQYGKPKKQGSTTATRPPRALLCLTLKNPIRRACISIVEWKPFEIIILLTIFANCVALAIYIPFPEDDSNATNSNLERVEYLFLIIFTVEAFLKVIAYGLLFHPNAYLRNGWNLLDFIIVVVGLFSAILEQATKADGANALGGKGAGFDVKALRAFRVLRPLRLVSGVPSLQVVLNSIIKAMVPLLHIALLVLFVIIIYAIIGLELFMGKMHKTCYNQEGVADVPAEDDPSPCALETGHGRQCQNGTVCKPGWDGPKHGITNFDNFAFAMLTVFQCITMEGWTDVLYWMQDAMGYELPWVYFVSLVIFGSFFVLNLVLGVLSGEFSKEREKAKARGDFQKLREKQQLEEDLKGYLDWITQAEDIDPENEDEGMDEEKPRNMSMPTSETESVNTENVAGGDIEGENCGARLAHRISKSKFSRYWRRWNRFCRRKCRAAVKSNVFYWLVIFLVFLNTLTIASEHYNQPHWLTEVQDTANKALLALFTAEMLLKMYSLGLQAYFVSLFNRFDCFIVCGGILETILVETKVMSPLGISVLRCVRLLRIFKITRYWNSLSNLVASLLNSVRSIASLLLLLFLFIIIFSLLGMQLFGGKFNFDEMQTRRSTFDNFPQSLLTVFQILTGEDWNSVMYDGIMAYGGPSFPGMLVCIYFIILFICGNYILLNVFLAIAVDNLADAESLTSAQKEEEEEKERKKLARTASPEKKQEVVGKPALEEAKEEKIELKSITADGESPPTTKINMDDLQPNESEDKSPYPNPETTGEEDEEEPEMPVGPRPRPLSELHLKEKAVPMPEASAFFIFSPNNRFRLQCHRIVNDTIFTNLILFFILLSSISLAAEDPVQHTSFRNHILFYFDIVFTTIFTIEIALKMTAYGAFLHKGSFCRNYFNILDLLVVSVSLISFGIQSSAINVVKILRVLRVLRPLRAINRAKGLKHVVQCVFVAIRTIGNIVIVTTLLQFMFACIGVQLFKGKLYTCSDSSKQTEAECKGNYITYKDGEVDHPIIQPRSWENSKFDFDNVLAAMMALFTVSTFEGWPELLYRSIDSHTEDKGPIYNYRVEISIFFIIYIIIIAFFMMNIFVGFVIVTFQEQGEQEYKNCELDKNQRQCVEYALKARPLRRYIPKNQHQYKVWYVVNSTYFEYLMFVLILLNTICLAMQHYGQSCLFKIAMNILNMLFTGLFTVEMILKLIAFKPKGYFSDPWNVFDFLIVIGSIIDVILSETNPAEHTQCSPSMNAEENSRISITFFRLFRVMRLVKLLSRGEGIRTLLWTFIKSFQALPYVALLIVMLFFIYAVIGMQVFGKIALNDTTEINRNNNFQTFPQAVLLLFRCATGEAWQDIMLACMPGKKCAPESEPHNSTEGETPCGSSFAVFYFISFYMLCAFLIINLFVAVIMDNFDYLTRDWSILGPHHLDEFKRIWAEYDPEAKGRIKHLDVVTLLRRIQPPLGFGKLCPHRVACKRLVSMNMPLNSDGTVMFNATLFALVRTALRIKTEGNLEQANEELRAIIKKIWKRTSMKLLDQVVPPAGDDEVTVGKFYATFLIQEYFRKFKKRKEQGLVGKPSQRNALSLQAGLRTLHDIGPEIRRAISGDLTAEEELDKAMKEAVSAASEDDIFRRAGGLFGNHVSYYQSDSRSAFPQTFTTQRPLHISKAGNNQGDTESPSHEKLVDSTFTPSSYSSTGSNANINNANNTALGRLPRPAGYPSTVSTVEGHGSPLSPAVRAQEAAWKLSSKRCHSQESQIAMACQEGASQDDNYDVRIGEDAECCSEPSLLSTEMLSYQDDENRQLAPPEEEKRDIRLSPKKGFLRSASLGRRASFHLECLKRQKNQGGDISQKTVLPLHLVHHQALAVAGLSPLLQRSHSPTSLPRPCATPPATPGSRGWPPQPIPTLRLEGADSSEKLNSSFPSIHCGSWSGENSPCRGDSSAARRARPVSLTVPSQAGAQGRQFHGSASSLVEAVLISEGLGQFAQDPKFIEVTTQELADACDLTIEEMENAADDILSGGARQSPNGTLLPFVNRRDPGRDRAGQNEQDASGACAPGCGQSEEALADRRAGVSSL
Sequence (P54284 whole entry partner): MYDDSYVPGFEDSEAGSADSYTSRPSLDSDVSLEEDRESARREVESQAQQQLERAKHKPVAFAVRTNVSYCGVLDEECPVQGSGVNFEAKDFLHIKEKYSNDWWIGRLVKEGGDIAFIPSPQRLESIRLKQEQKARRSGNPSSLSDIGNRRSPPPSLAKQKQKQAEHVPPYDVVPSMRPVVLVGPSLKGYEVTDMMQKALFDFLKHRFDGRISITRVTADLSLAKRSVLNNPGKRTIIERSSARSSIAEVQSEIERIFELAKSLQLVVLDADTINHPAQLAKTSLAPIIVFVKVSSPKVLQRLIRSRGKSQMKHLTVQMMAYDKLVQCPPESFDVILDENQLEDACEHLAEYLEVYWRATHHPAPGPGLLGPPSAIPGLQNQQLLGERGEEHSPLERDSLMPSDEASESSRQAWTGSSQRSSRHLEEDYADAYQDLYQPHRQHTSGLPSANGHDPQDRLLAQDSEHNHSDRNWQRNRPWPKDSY
Sequence (P54289 25-956 partner limits assumed): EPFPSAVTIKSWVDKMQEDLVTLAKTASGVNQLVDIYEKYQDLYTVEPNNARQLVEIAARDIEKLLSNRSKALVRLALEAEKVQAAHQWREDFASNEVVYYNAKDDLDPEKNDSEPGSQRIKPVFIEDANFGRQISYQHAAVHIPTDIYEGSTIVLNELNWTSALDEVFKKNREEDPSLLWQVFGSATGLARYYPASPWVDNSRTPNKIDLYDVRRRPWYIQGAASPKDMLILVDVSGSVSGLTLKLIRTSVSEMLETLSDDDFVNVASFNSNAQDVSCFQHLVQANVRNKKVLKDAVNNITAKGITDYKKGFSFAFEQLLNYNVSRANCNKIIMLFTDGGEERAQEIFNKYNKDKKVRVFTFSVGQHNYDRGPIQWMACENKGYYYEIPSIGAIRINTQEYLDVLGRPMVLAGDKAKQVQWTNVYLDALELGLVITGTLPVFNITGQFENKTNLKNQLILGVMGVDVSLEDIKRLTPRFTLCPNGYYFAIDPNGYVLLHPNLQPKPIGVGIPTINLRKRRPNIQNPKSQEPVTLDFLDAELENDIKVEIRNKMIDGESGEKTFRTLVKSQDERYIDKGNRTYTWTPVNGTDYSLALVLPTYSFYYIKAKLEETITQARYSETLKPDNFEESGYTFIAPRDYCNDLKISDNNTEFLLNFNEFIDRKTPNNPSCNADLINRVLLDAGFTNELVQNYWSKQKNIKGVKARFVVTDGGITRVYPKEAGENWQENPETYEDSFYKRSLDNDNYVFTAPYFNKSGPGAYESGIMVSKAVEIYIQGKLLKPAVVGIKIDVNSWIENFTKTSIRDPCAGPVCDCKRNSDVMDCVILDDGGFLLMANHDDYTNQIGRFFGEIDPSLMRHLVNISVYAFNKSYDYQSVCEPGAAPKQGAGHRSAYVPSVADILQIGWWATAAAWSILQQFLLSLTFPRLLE
Sequence (P54289 957-1103 partner limits assumed): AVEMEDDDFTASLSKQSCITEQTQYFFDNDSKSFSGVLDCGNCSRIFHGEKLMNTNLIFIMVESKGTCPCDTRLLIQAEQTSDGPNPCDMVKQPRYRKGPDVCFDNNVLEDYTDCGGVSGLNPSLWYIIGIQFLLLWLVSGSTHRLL
Parameter value (number): base-10 log of IC50 in µM.

Answered cases to consult:
molecule=CC(C)(C)N1C(=O)CC(=O)N(CCc2cccc(Cl)c2)C1=O system="Cav1.2 L-type Ca channels (Oryctolagus cuniculus, UniProt P15381)" value_measured=0.86
molecule=O=C1CC(=O)N(Cc2ccc(Cl)cc2)C(=O)N1CCc1ccc2ccccc2c1 system="Cav1.2 L-type Ca channels (Oryctolagus cuniculus, UniProt P15381)" value_measured=0.38
molecule=CN1C(=O)CC(=O)N(Cc2cccc([N+](=O)[O-])c2)C1=O system="Cav1.2 L-type Ca channels (Oryctolagus cuniculus, UniProt P15381)" value_measured=2.22
molecule=O=C1CC(=O)N(CCc2cccc([N+](=O)[O-])c2)C(=O)N1CCc1cccc([N+](=O)[O-])c1 system="Cav1.2 L-type Ca channels (Oryctolagus cuniculus, UniProt P15381)" value_measured=2.24
molecule=O=C1CC(=O)N(C2CC2)C(=O)N1CCc1cccc(Cl)c1 system="Cav1.2 L-type Ca channels (Oryctolagus cuniculus, UniProt P15381)" value_measured=0.73
molecule=O=C1CC(=O)N(CCc2ccc([N+](=O)[O-])cc2)C(=O)N1CCc1ccc(Cl)cc1 system="Cav1.2 L-type Ca channels (Oryctolagus cuniculus, UniProt P15381)" value_measured=0.43
molecule=O=C1CC(=O)N(C2CCC2)C(=O)N1CCc1cccc(Cl)c1 system="Cav1.2 L-type Ca channels (Oryctolagus cuniculus, UniProt P15381)" value_measured=1.16
molecule=O=C1CC(=O)N(C2CC2)C(=O)N1CCc1ccc(Cl)cc1 system="Cav1.2 L-type Ca channels (Oryctolagus cuniculus, UniProt P15381)" value_measured=0.70
molecule="CCC(C)N1C(=O)CC(=O)N(CCc2cccc(Cl)c2)C1=O (stereo not shown)" system="Cav1.2 L-type Ca channels (Oryctolagus cuniculus, UniProt P15381)" value_measured=1.66

Cav1.2 L-type Ca channels (Oryctolagus cuniculus, UniProt P15381) log10 of IC50 of `O=C1CC(=O)N(CCc2ccc3ccccc3c2)C(=O)N1CCc1ccc(Cl)cc1` is 0.15

---

target: Cav1.3 L-type Ca channels (Rattus norvegicus, UniProt P27732); construct: expressed in transfected cells; host or cells: HEK293; test: FLIPR Fluo-8 calcium assay, Cav1.3 channel inhibition in HEK293 cells; assay type: cell-based; conditions: first library; ratio of IC50 Cav1.2 to Cav1.3
Readout kind: Selectivity
Numbers only.

compound_string=O=C1CC(=O)N(Cc2cccc([N+](=O)[O-])c2)C(=O)N1CCCc1ccccc1 value_measured=0.8
compound_string=O=C1CC(=O)N(CCc2ccc3ccccc3c2)C(=O)N1CCc1ccc(Cl)cc1 value_measured=1.2
compound_string=O=C1CC(=O)N(CCc2cccc(F)c2)C(=O)N1CCCc1ccccc1 value_measured=1.5
compound_string=O=C1CC(=O)N(C2CCCCC2)C(=O)N1CCc1cccc(Cl)c1 value_measured=38.0

Your task in this section: give Selectivity for each listed record.
1. COC(=O)[C@H](CC(C)C)N1C(=O)CC(=O)N(CCc2ccc(Cl)cc2)C1=O
2. O=C1CC(=O)N(CCc2ccc(Cl)c(Cl)c2)C(=O)N1CCCCc1ccccc1
3. O=C1CC(=O)N(Cc2ccc([N+](=O)[O-])cc2)C(=O)N1CCCCc1ccccc1

Return:
1. 0.8
2. 2.3
3. 0.6

`O=C1CC(=O)N(CCc2ccc3ccccc3c2)C(=O)N1CCc1ccc(F)cc1` has a reported Selectivity of 2.1

---

molecular target: Cav1.3 L-type Ca channels (Rattus norvegicus); construct: expressed in transfected cells; host or cells: HEK293; experiment: FLIPR Fluo-8 calcium assay, Cav1.3 channel inhibition in HEK293 cells; assay type: cell-based; details: IC50 (μM) Cav1.3, Table 4; 12 concentration points (0.1 nM~100 μM) in duplicate
Assign IC50 to each entry below.

Answered cases to consult:
compound_string=Cc1cccc(CCN2C(=O)CC(=O)N(C3CCCCC3)C2=O)c1 value_measured="2.2 µM"
compound_string=O=C1CC(=O)N(C2CCCC2)C(=O)N1CCc1cccc(Cl)c1 value_measured="1.7 µM"
compound_string=O=C1CC(=O)N(C2CCCCC2)C(=O)N1CCc1cccc(Cl)c1 value_measured="1.4 µM"
compound_string=O=C1CC(=O)N(C2CCCCC2)C(=O)N1CCc1cccc(C(F)(F)F)c1 value_measured="1.3 µM"
compound_string=O=C1CC(=O)N(C2CCCCC2)C(=O)N1CCc1cccc(Br)c1 value_measured="1.3 µM"

Your task in this section: give IC50 for each listed record.
1. O=C1CC(=O)N(C2CCCC2)C(=O)N1CCCCc1ccccc1
2. O=C1CC(=O)N(C2CCCC2)C(=O)N1CCc1cccc(C(F)(F)F)c1

Return:
1. 1.3 µM
2. 1.1 µM

Cav1.3 L-type Ca channels (Rattus norvegicus) IC50 of `O=C1CC(=O)N(C2CCCCC2)C(=O)N1CCc1ccc(Cl)cc1` is 1.1 µM

---

Assign Selectivity to each entry below.
target: Cav1.3 L-type Ca channels (Rattus norvegicus); construct: expressed in transfected cells; host or cells: HEK293; assay: FLIPR Fluo-8 calcium assay, Cav1.3 channel inhibition in HEK293 cells; type: cell-based; conditions: first library; ratio of IC50 Cav1.2 to Cav1.3

Answered cases to consult:
compound=O=C1CC(=O)N(CCc2ccc3ccccc3c2)C(=O)N1CCc1ccc2ccccc2c1 system="Cav1.3 L-type Ca channels (Rattus norvegicus)" readout_kind=Selectivity value_measured=0.6
compound=O=C1CC(=O)N(CCc2ccc(Cl)cc2)C(=O)N1CCc1ccc(F)cc1 system="Cav1.3 L-type Ca channels (Rattus norvegicus)" readout_kind=Selectivity value_measured=3.1
compound=O=C1CC(=O)N(CCc2c(Cl)cccc2Cl)C(=O)N1CCc1ccc(Cl)cc1 system="Cav1.3 L-type Ca channels (Rattus norvegicus)" readout_kind=Selectivity value_measured=0.7

Your task in this section: give Selectivity for each listed record.
1. Cc1ccc(CCN2C(=O)CC(=O)N(CCCCc3ccccc3)C2=O)cc1
2. O=C1CC(=O)N(CCc2cccc(Cl)c2)C(=O)N1CCCCc1ccccc1
3. O=C1CC(=O)N(C2CCCC2)C(=O)N1CCCCc1ccccc1
4. O=C1CC(=O)N(CCc2cccc(Cl)c2)C(=O)N1CCc1ccc(Cl)cc1
5. CC(CN1C(=O)CC(=O)N(CCc2ccc(Cl)cc2)C1=O)c1ccccc1 (stereo not drawn)

Return:
1. 14.1
2. 4.9
3. 33.7
4. 2.3
5. 5.0

`O=C1CC(=O)N(Cc2cccc([N+](=O)[O-])c2)C(=O)N1CCc1ccc(Cl)cc1` has a reported Selectivity of 0.4

---

molecular target: Cav1.3 L-type Ca channels (Rattus norvegicus, UniProt P27732); construct: expressed in transfected cells; host or cells: HEK293; assay: FLIPR Fluo-8 calcium assay, Cav1.3 channel inhibition in HEK293 cells; format: cell-based; settings: first library; ratio of IC50 Cav1.2 to Cav1.3
Readout kind: Selectivity
Answers are plain numbers.

Your task in this section: give Selectivity for each listed record.
1. O=C1CC(=O)N(CCc2cccc(C(F)(F)F)c2)C(=O)N1CCc1ccc(Cl)cc1 [Compound 20]
2. O=C1CC(=O)N(CCc2ccc(Br)cc2)C(=O)N1CCCCc1ccccc1 [Compound 40]
3. O=C1CC(=O)N(CCc2ccc(Cl)cc2)C(=O)N1CCc1ccc(Cl)cc1 [Compound 11]
4. CCCCCCCCN1C(=O)CC(=O)N(CCCc2ccccc2)C1=O [Compound 60]
5. O=C1CC(=O)N(CCc2ccc(Cl)cc2Cl)C(=O)N1CCc1ccc(Cl)cc1 [Compound 13]
6. C=CCOC(=O)[C@H](Cc1ccccc1)N1C(=O)CC(=O)N(CCc2ccc(Cl)cc2)C1=O [Compound 37]

Return:
1. 6.2
2. 1.9
3. 1.2
4. 2.5
5. 1.5
6. 1.0

Your task in this section: give Selectivity for each listed record.
1. O=C1CC(=O)N(CCc2ccc3ccccc3c2)C(=O)N1CCCc1ccccc1 [Compound 61]
2. O=C1CC(=O)N(C2CCc3ccccc32)C(=O)N1CCCCc1ccccc1 (centres unmarked) [Compound 52]

Return:
1: 1.3; 2: 1.1

---

target: Cav1.3 L-type Ca channels (Rattus norvegicus, UniProt P27732); construct: expressed in transfected cells; host or cells: HEK293; experiment: FLIPR Fluo-8 calcium assay, Cav1.3 channel inhibition in HEK293 cells; type: cell-based; conditions: IC50 (μM) CaV1.3, first library; FLIPR, HEK293; value (±SD)
Readout kind: IC50 (µM)
One number for each entry, in µM.

molecule=O=C1CC(=O)N(CCc2cccc(F)c2)C(=O)N1CCc1ccc(Cl)cc1 readout_kind=IC50 value_measured=1.9
molecule=O=C1CC(=O)N(CCc2cccc([N+](=O)[O-])c2)C(=O)N1CCCCc1ccccc1 readout_kind=IC50 value_measured=3
molecule="CC(CN1C(=O)CC(=O)N(CCCCc2ccccc2)C1=O)c1ccccc1 (stereo not drawn)" readout_kind=IC50 value_measured=2.1
molecule=O=C1CC(=O)N(CCc2ccc3ccccc3c2)C(=O)N1CCc1ccc2ccccc2c1 readout_kind=IC50 value_measured=2.9

Your task in this section: give IC50 for each listed record.
1. O=C1CC(=O)N(CCc2cccc(Cl)c2)C(=O)N1CCc1ccc(Cl)cc1
2. O=C1CC(=O)N(CCc2ccc3ccccc3c2)C(=O)N1CCCCc1ccccc1
3. O=C1CC(=O)N(CCc2cccc(C(F)(F)F)c2)C(=O)N1CCc1ccc(Cl)cc1

Return:
1.9
1.9
0.4

Your task in this section: give IC50 for each listed record.
1. O=C1CC(=O)N(Cc2ccc(Cl)cc2)C(=O)N1CCCc1ccccc1
2. O=C1CC(=O)N(CCc2ccc(Cl)c(Cl)c2)C(=O)N1CCCCc1ccccc1

Return:
21.9
1.3
